Known IC50 of a selection of molecules
- Assayed System: AKT1 WT (Homo sapiens)
- Construct: expressed in transfected cells; host or cells: HEK293
- Sequence (P31749 whole entry): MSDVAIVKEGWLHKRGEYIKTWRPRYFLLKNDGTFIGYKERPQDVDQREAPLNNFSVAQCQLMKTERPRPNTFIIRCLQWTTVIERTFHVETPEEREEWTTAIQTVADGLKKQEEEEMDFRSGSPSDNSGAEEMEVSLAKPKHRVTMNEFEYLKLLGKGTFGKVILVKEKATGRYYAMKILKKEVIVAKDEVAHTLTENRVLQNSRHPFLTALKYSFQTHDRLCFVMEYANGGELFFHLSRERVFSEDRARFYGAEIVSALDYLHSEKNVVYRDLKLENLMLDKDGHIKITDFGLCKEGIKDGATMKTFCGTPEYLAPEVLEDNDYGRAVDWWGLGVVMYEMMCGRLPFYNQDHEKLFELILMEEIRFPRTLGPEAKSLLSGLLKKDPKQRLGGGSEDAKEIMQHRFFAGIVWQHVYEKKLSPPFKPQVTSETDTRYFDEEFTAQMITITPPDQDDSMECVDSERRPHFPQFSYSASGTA
- Protocol Details: Live cell AKT1 WT target engagement by NanoBRET competitive probe displacement in HEK293 cells
- Format: binding
- Test Parameters: NanoBRET live cell target engagement, HEK293 cells, 2 h at 37° C.; read-out: AKT1 WT IC50
Kindly provide the numeric value in nM only, without the unit symbol.

Consider the reported IC50 for these molecules:
Smiles Str	Assayed System	Reading Unit	Meas Value
Cn1ncc(-c2ccc3nc(-c4cccnc4N)n(-c4ccc5c(c4)CC[C@@H]5n4ccnn4)c3n2)n1	AKT1 WT (Homo sapiens)	nM	60.4
Nc1ncccc1-c1nc2ccc(-n3cccn3)nc2n1-c1ccc2c(c1)CC[C@@H]2NC(=O)c1ccc(N2CCOCC2)nc1	AKT1 WT (Homo sapiens)	nM	6.98
Nc1ncccc1-c1nc2ccc(-n3cccn3)nc2n1-c1ccc2c(c1)CC[C@@H]2NC(=O)c1ccc(C2CC2)nc1	AKT1 WT (Homo sapiens)	nM	6.94

Could you now look at the following molecule, please?
Which value of IC50 has been reported for "Cc1cnc2ccc(C(=O)N[C@H]3CCc4cc(-n5c(-c6cccnc6N)nc6ccc(-n7cccn7)nc65)ccc43)cn12" in the records?
4.63

###

- Assayed System: AKT2 (Homo sapiens, UniProt P31751)
- Construct: expressed in transfected cells; host or cells: HEK293
- Sequence (P31751 whole entry): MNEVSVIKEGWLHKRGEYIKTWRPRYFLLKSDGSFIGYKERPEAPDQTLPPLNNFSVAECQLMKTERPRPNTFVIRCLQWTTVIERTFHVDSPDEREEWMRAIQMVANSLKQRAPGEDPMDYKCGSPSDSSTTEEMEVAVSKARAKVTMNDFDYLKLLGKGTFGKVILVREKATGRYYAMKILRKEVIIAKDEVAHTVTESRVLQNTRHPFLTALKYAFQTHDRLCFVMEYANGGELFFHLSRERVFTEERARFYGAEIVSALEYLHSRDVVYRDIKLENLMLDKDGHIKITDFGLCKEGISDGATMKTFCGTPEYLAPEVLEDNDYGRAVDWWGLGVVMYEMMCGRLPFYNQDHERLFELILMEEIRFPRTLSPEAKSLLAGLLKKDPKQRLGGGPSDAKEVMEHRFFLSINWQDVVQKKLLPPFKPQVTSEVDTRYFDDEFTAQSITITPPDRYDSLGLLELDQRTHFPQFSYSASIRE
- Protocol Details: Live cell AKT2 target engagement by NanoBRET competitive probe displacement in HEK293 cells
- Assay type: binding
- Test Parameters: NanoBRET live cell target engagement, HEK293 cells, 2 h at 37° C.; read-out: AKT2 IC50
Measure: log10 of IC50 (log10 of the value in nM)
Answers are given as log10 of IC50 in nM.

Consider the reported log10 of IC50 for these molecules:
Molecule	log10 of IC50
CC#Cc1ncccc1C(=O)N[C@H]1CCc2cc(-n3c(-c4cccnc4N)nc4ccc(-n5cccn5)nc43)ccc21 [Compound 211]	2.92
Nc1ncccc1-c1nc2ccc(-n3cccn3)nc2n1-c1ccc2c(c1)CC[C@@H]2NC(=O)c1ccc(F)c(Cl)c1 [Compound 337]	1.91
Cc1ncccc1C(=O)N[C@H]1CCc2cc(-n3c(-c4cccnc4N)nc4ccc(-n5cccn5)nc43)ccc21 [Compound 29]	2.18
Cc1nc2ncccc2c(=O)n1[C@H]1CCc2cc(-n3c(-c4cccnc4N)nc4ccc(-n5cccn5)nc43)ccc21 [Compound 180]	3.06
COCc1ncccc1C(=O)N[C@H]1CCc2cc(-n3c(-c4cccnc4N)nc4ccc(-n5cccn5)nc43)ccc21 [Compound 149]	3.20

Which value of log10 of IC50 has been reported for Nc1ncccc1-c1nc2ccc(-n3cccn3)nc2n1-c1ccc2c(c1)CC[C@@H]2NC1CCN(C(=O)c2ccccc2)CC1 [Compound 275] in the records?
3.03

Which value of log10 of IC50 has been reported for Nc1ncccc1-c1nc2ccc(-n3cccn3)nc2n1-c1ccc2c(c1)CC[C@@H]2n1cc(Cc2ccccc2)nn1 [Compound 156] in the records?
2.86

###

- Assayed System: AKT1 WT (Homo sapiens)
- Construct: expressed in transfected cells; host or cells: HEK293
- Protocol Details: Live cell AKT1 WT target engagement by NanoBRET competitive probe displacement in HEK293 cells
- Type: binding
- Test Parameters: NanoBRET competitive probe displacement, live HEK293 cells, 2 h at 37° C.; read-out: AKT1 WT IC50
Measure: pIC50
Lab note — pIC50 values are minus log10 of concentrations in M.

Consider the reported pIC50 for these compounds:
Compound	Assayed System	pIC50
CN1CC(C#Cc2ccc3nc(-c4cccnc4N)n(-c4ccc5c(c4)CC[C@@H]5NC(=O)c4ccc(C(F)F)nc4)c3n2)C1 [Compound 411]	AKT1 WT (Homo sapiens)	6.01
Nc1ncccc1-c1nc2ccc(-n3cccn3)nc2n1-c1ccc2c(c1)CC[C@@H]2NC1CCC2(CC1)CN(c1ccccn1)C2 [Compound 450]	AKT1 WT (Homo sapiens)	6.70
C#Cc1ccc2nc(-c3cccnc3N)n(-c3ccc4c(c3)CC[C@@H]4NC(=O)c3ccc(C(F)F)nc3)c2n1 [Compound 404]	AKT1 WT (Homo sapiens)	7.47
Nc1ncccc1-c1nc2ccc(C#CC3CC3)nc2n1-c1ccc2c(c1)CC(F)[C@@H]2NC1CCN(C(=O)C2CC2)CC1 (stereo partly shown) [Compound 521]	AKT1 WT (Homo sapiens)	6.98
Cc1ccc(C(=O)N[C@H]2CCc3cc(-n4c(-c5ccccc5)nc5ccc(-n6cccn6)nc54)ccc32)cn1 [Compound 400]	AKT1 WT (Homo sapiens)	7.84

Which value of pIC50 has been reported for Nc1ncccc1-c1nc2ccc(-n3ccc(N4CCC4)n3)nc2n1-c1ccc2c(c1)CC[C@@H]2NC1CCN(C(=O)C2CC2)CC1 [Compound 562] in the records?
8.01

Which value of pIC50 has been reported for COc1ccn(-c2ccc3nc(-c4cccnc4N)n(-c4ccc5c(c4)CC(F)[C@@H]5NC4CN(C(=O)C5CC5)C4)c3n2)n1 (stereo partly shown) [Compound 493] in the records?
7.24

Which value of pIC50 has been reported for Nc1ncccc1-c1nc2ccc(-n3cccn3)nc2n1-c1ccc2c(c1)CC[C@@H]2NC(=O)c1cc(C2CC2)c(O)c(C(F)(F)F)c1 [Compound 415] in the records?
8.53

Which value of pIC50 has been reported for Nc1ncccc1-c1nc2ccc(-n3cccn3)nc2n1-c1ccc2c(c1)CC[C@@H]2NC1Cc2cccnc2C1 (stereo partly shown) [Compound 531] in the records?
7.30

Which value of pIC50 has been reported for Nc1ncccc1-c1nc2ccc(C#CC3CC3)nc2n1-c1ccc2c(c1)CC[C@@H]2NC(=O)c1ccc(F)c(F)c1 [Compound 459] in the records?
7.58

Which value of pIC50 has been reported for COc1ccn(-c2ccc3nc(-c4cccnc4N)n(-c4ccc5c(c4)CC[C@@H]5NC4[C@@H]5COC[C@H]4CN(C(=O)C4CC4)C5)c3n2)n1 (single isomer, unassigned) [Compound 523] in the records?
7.32

###

- Assayed System: AKT1 WT (Homo sapiens)
- Construct: expressed in transfected cells; host or cells: HEK293
- Protocol Details: Live cell AKT1 WT target engagement by NanoBRET competitive probe displacement in HEK293 cells
- Assay type: binding
- Test Parameters: NanoBRET live cell target engagement, HEK293 cells, 2 h at 37° C.; read-out: AKT1 WT IC50
Threshold check on IC50: strictly below 10 nM is yes; on or above 10 nM is no.

Strictly below 10 nM in IC50? "Nc1ncccc1-c1nc2ccc(-n3cccn3)nc2n1-c1ccc2c(c1)CC[C@@H]2NC(=O)c1ccccn1"
no

Strictly below 10 nM in IC50? "COc1cc(C(=O)N[C@H]2CCc3cc(-n4c(-c5cccnc5N)nc5ccc(-n6nccn6)nc54)ccc32)ccn1"
yes

Strictly below 10 nM in IC50? "Cn1nc(C(=O)N[C@H]2CCc3cc(-n4c(-c5cccnc5N)nc5ccc(-n6cccn6)nc54)ccc32)c2cccnc21"
no

Strictly below 10 nM in IC50? Cc1ncccc1C(=O)N[C@@H]1c2ccc(-n3c(-c4cccnc4N)nc4ccc(-n5cccn5)nc43)cc2CC1F (some centres unmarked) [Compound 148]
no

Strictly below 10 nM in IC50? "COc1ncc(C(=O)N[C@H]2CCc3cc(-n4c(-c5cccnc5N)nc5ccc(-n6cccn6)nc54)ccc32)cc1F"
yes

Strictly below 10 nM in IC50? "Nc1ncccc1-c1nc2ccc(-n3cccn3)nc2n1-c1ccc2c(c1)CC[C@@H]2NC(=O)c1ccnc(C(F)F)c1"
yes

Strictly below 10 nM in IC50? Nc1ncccc1-c1nc2ccc(-n3cccn3)nc2n1-c1ccc2c(c1)CC[C@@H]2NC(=O)CC1CCC(=O)N1 (some centres unmarked)
no

###

Known pIC50 of a selection of compounds
- Assayed System: AKT1 WT (Homo sapiens)
- Construct: expressed in transfected cells; host or cells: HEK293
- Protocol Details: Live cell AKT1 WT target engagement by NanoBRET competitive probe displacement in HEK293 cells
- Assay type: binding
- Test Parameters: NanoBRET live cell target engagement, HEK293 cells, 2 h at 37° C.; read-out: AKT1 WT IC50
Lab note — pIC50 values are minus log10 of concentrations in M.

Consider the reported pIC50 for these compounds:
Smiles Str	pIC50
COc1cc(F)cc(C(=O)N[C@H]2CCc3cc(-n4c(-c5cccnc5N)nc5ccc(-n6cccn6)nc54)ccc32)c1	8.09
Cn1cc(C(=O)N[C@H]2CCc3cc(-n4c(-c5cccnc5N)nc5ccc(-n6cccn6)nc54)ccc32)ccc1=O	7.26
Nc1ncccc1-c1nc2ccc(-n3ccc(F)n3)nc2n1-c1ccc2c(c1)CC[C@@H]2NC(=O)c1ccc(C(F)F)nc1	7.74
Nc1ncccc1-c1nc2ccc(-n3cccn3)nc2n1-c1ccc2c(c1)CC[C@@H]2NC(=O)c1ccc2[nH]c(=O)sc2c1	7.91
Cc1cnc(C)c(C(=O)N[C@H]2CCc3cc(-n4c(-c5cccnc5N)nc5ccc(-n6cccn6)nc54)ccc32)n1	6.48

Which value of pIC50 has been reported for "Cc1ncc(C(=O)N[C@H]2CCc3cc(-n4c(-c5cccnc5N)nc5ccc(-n6cccn6)nc54)ccc32)c(C(F)F)n1" in the records?
7.64
